TARGET_OF_ASSAY: T1, hIL-11R (Homo sapiens, UniProt Q14626)
T1 sequence (Q14626 23-422): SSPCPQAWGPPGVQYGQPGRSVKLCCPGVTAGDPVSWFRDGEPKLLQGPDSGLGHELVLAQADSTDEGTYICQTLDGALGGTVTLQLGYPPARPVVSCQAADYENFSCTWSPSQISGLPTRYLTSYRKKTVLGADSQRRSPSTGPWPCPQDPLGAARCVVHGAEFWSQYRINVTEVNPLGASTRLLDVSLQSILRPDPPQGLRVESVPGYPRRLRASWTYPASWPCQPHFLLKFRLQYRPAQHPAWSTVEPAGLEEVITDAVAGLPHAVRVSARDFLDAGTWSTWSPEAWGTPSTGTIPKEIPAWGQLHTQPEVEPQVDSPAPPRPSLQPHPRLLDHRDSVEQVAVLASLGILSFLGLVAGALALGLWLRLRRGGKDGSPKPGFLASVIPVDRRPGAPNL
PROTOCOL_NOTES: Alternate biolayer interferometry assay (AHC biosensors) ranking mAbs 16-32 against mAb5
Format: binding
CONDITION_DETAILS: compared to mAb5 (comparator)

MOLECULE	qualitative assessment
mAb20: anti-IL-11Rα antibody, human IgG4 (S228P), kappa; VH SEQ ID NO: 231, VL SEQ ID NO: 232 (antibody, V domains shown, IgG4 S228P kappa constant regions; mAb20 VH Chain; mAb20 VL Chain) VH: EVQLLESGGGLVQPGGSLRLSCAASGFTFSGYSMTWVRQAPGKGLEWVSSIVPYGDLTQYADSVKGRFTISRDNSKNTLYLQMNSLRAEDTAVYYCAKGPGWGSFDLWGRGTLVTVSS VL: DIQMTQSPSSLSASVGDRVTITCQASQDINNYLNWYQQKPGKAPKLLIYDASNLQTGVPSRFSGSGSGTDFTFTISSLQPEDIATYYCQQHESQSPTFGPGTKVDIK	similar
mAb23: anti-IL-11Rα antibody, human IgG4 (S228P), kappa; VH SEQ ID NO: 237, VL SEQ ID NO: 238 (antibody, V domains shown, IgG4 S228P kappa constant regions; mAb23 VH Chain; mAb23 VL Chain) VH: EVQLLESGGGLVQPGGSLRLSCAASGFTFSKYSMTWVRQAPGKGLEWVSSIVPYGDLTQYADSVKGRFTISRDNSKNTLYLQMNSLRAEDTAVYYCAKGPGWGSFDLWGRGTLVTVSS VL: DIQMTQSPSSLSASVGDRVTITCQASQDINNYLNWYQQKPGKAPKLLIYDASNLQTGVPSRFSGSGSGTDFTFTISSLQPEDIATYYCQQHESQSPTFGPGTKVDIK	improved/
mAb22: anti-IL-11Rα antibody, human IgG4 (S228P), kappa; VH SEQ ID NO: 235, VL SEQ ID NO: 236 (antibody, V domains shown, IgG4 S228P kappa constant regions; mAb22 VH Chain; mAb22 VL Chain) VH: EVQLLESGGGLVQPGGSLRLSCAASGFTFSIYSMTWVRQAPGKGLEWVSSIVPYGDLTQYADSVKGRFTISRDNSKNTLYLQMNSLRAEDTAVYYCAKGPGWGSFDLWGRGTLVTVSS VL: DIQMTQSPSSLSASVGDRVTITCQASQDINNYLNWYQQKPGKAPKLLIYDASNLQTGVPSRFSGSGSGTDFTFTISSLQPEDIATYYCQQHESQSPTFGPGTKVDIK	similar
mAb29: anti-IL-11Rα antibody, human IgG4 (S228P), kappa; VH SEQ ID NO: 249, VL SEQ ID NO: 250 (antibody, V domains shown, IgG4 S228P kappa constant regions; mAb29 VH Chain; mAb29 VL Chain) VH: EVQLLESGGGLVQPGGSLRLSCAASGFTFSSYSMTWVRQAPGKGLEWVSSIVPYGDLTQYADSVKGRFTISRDNSKNTLYLQMNSLRAEDTAVYYCAKGPGWGSFDLWGRGTLVTVSS VL: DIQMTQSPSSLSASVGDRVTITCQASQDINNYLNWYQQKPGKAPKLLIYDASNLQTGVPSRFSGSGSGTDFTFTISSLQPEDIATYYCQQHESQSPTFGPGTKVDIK	improved/
